All figures here come from paper PMC7773830.

molecular target: Na-ASP-2 (Necator americanus, UniProt Q7Z1H1); assay: [3H]-cholesterol radioligand binding and competition assay
Sequence (Q7Z1H1 entry or part of it): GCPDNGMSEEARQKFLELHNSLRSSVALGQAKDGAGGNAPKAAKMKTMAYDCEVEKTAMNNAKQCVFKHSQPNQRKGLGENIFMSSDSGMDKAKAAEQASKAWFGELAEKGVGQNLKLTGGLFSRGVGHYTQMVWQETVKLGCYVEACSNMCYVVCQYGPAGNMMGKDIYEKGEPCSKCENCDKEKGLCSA
value.type: pKd
The read-out pKd is expressed as -log10 of concentration in moles per litre.

### Prompt I'd like to know its pKd. The compound in question is CC(C)CCC[C@@H](C)[C@H]1CC[C@H]2[C@@H]3CC=C4C[C@@H](O)CC[C@]4(C)[C@H]3CC[C@]12C [cholesterol]
### Response 5.68

---

target: Na-ASP-2 (Necator americanus, UniProt Q7Z1H1); assay: Microscale thermophoresis; type: binding
Response field label takes yes when Kd is strictly below 300 µM and no in all other cases.

These recorded examples may help you get a feel for the data.
[[record]]
compound = "O=C(O)CCCCCCCCO [9-hydroxynonanoic acid]"
label_value = "yes"

[[record]]
compound = "C[C@@H](O)CCCC/C=C/C(=O)O [(R,E)-8-hydroxynon-2-enoic acid, (R, E)-8-hydroxynon-2-enoic acid]"
label_value = "yes"

[[record]]
compound = "CCCCCCCCCCCCCCCC(=O)O [palmitic acid, reference compound]"
label_value = "yes"

[[record]]
compound = "C[C@H](CCCC/C=C/C(=O)O)O[C@@H]1O[C@@H](C)[C@H](O)C[C@H]1O"
label_value = "yes"


Attention now shifts to the item below.
### Prompt Hello, I'm reviewing records and need to know if Kd of C[C@@H](O)CCCCCCC(=O)O [(R)-8-hydroxynonanoic acid] is below 300 µM. Could you check?
### Response no
